Measured On: MAP3K2 (Homo sapiens, UniProt Q9Y2U5)
Sequence (Q9Y2U5 1-619): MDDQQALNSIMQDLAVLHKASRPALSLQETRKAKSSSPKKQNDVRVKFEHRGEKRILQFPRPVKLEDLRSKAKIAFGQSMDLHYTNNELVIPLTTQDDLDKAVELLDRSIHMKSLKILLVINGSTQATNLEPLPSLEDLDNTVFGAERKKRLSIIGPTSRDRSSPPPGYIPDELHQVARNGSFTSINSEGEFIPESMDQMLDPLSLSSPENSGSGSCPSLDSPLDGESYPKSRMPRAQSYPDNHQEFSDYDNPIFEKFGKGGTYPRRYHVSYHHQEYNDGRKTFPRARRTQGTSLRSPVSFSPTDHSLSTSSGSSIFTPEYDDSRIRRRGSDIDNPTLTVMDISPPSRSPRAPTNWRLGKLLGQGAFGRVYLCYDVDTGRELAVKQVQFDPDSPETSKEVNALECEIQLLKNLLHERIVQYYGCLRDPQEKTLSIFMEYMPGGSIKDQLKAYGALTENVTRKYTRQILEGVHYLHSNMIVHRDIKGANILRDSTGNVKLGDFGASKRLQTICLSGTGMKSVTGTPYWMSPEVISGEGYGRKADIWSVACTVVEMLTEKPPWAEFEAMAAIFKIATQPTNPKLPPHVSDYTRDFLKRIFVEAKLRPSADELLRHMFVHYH
Experiment: biochemical
Reported Conditions: read-out: KDapp
Field: pKd. Provide a value for each of the compounds that follow.
Give bare numbers, as −log10 of the molar value.

| Compound | pKd |
| --- | --- |
| CN1CCN(c2ccc(Nc3ncc(C#N)c(Nc4ccccc4C(N)=O)n3)cc2)CC1.Cl [TCMDC-134116] | 6.50 |

Entry under review: Cl.NCC1(c2nc(-c3ccc(Cl)c(O)c3)c(-c3ccncc3)[nH]2)CCCCC1 [TCMDC-141154] . Reported pKd?
6.11
